MEASURED_TARGET: CYP3A4 (Homo sapiens)
Sequence (P08684 whole entry): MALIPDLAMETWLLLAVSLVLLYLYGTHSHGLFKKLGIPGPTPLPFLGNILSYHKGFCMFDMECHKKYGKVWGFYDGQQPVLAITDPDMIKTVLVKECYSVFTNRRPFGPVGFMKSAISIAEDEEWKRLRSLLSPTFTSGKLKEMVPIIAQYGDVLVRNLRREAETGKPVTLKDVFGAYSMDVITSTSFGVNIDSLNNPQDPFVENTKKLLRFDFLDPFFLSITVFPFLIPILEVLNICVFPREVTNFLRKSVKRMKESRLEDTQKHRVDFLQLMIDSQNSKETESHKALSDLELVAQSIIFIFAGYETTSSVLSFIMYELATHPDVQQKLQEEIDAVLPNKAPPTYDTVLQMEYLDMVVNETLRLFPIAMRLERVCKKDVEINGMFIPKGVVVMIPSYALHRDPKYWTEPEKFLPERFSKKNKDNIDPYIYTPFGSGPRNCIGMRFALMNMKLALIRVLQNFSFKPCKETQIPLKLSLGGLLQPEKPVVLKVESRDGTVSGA
METHOD_SUMMARY: Degradation in single recombinant CYP3A4
Assay type: in vitro ADME
Parameters: purchased RILD (Research Institute for Liver Diseases Co., Ltd., Shanghai, China)
MEASUREMENT_CONTEXT: human, recombinant CYP3A4, pH 7.4; 5 μM compound, single enzyme CYP3A4; read-out: t1/2 in CYP3A4
MEASUREMENT_KIND: half-life at 5 μM (min)
Express it in min; write the number only.

molecule="CC(C)=C1C/C=C(\\C)CC/C=C(\\C)CC1=O [germacrone]" readout_number=36.5

For COc1cc(/C=C/C(=O)CC(=O)/C=C/c2ccc(O)c(OC)c2)ccc1O [curcumin] , what is its reported half-life at 5 μM?
38.5

Reference source for all entries: paper PMC9317718
